Each entry below carries its recorded composite z-score.
System: Lefty1
Assay: Lefty1 binders on small-molecule microarrays, primary screen, biochemical, small-molecule microarray, 635/667 nm fluorescence (AID 1139)
Details: small-molecule microarray binding, fluorescence 635/667; higher = more signal
ATTRIBUTE MEASURED: composite z-score

STRUCTURE SMILES | MEASURED NUMBER
COc1ccc(CCNC(=O)[C@@]2(C)c3ccccc3C(=O)N(Cc3cc(F)cc(C(F)(F)F)c3)[C@H]2c2ccc(CO)cc2)cc1 | -0.953
C=C/C=C/[C@H]1C(=C)CN([C@@H](Cc2ccccc2)C(=O)OC)[C@@H]1[C@H](O)Cc1ccccc1 | -0.426
COC(=O)C(CC#Cc1ccc2c(c1)[C@]1(C(=O)N2)[C@H](C(=O)O)[C@H]2C(=O)O[C@H](c3ccccc3)[C@H](c3ccccc3)N2[C@@H]1c1ccc(O)cc1)C(=O)OC | -0.574
